meta.source: paper PMC12529666

Consider the following binders; for each one, report its binding signal.
Biological target: AGO2 L192P (Homo sapiens, UniProt Q9UKV8 1-859, L192P;S387D;S824A;S828D;S831D;S834A)
Sequence (Q9UKV8 whole entry L192P/S387D/S824A/S828D/S831D/S834A): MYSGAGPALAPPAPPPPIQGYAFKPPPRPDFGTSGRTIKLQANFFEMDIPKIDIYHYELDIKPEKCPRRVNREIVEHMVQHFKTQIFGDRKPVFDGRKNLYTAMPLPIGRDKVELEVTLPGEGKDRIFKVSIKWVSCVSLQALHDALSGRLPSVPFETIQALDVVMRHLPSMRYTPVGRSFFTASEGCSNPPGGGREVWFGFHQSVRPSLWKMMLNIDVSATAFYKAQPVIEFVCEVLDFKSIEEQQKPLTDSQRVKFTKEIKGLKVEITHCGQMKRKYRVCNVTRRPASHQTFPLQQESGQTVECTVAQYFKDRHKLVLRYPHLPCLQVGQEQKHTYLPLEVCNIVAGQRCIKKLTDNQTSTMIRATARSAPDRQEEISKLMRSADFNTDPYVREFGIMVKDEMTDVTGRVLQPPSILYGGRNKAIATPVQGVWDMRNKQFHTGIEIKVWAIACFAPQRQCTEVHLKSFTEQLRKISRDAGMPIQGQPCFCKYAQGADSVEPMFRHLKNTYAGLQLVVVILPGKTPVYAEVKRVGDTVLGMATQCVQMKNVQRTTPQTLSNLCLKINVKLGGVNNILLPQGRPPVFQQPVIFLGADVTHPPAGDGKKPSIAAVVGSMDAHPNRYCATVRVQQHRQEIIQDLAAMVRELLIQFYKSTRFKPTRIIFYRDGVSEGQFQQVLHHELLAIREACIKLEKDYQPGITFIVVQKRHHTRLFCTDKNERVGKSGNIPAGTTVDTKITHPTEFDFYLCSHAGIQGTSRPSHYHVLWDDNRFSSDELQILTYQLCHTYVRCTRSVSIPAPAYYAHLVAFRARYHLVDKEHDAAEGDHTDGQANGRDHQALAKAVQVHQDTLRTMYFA
Assay: RNA Bind-n-Seq (nitrocellulose filter binding and sequencing); miR-122 guide loaded in AGO2; 60 min incubation; 30 mM Tris pH 8.0, 100 mM potassium acetate, 2 mM magnesium acetate, 0.5 mM TCEP, 0.005% NP-40, 0.01 mg/ml yeast tRNA; 3 nM AGO2-miR-122, 100 nM RNA library; 60; high values mean tight binding
Conditions: protein: recombinant; tags: His6 (N-terminal, pFastBac HTA)

Worked set:
- GTATCTTG (ssRNA, constant regions annealed to DNA blockers; guide miR-122 5' phosphate) RNA 1: GAGUUCUACAGUCCGACGAUCCCAACGUAUCUUGCACCUGGAAUUCUCGGGUGCCAA RNA 2: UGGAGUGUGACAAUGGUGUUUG DNA 1: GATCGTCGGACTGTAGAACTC DNA 2: TTGGCACCCGAGAATTCCA: 0.32 fold enrichment over input
- GTACTTTA (ssRNA, constant regions annealed to DNA blockers; guide miR-122 5' phosphate) RNA 1: GAGUUCUACAGUCCGACGAUCCCAACGUACUUUACACCUGGAAUUCUCGGGUGCCAA RNA 2: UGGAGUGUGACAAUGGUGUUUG DNA 1: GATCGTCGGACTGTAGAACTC DNA 2: TTGGCACCCGAGAATTCCA: 0.446 fold enrichment over input
- ACACCTCA (ssRNA, constant regions annealed to DNA blockers; guide miR-122 5' phosphate) RNA 1: GAGUUCUACAGUCCGACGAUCCCAACACACCUCACACCUGGAAUUCUCGGGUGCCAA RNA 2: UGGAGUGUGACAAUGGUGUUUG DNA 1: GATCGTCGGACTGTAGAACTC DNA 2: TTGGCACCCGAGAATTCCA: 1.13 fold enrichment over input

Okay, next one:
Query: binding signal; subject: ATATTCTG (ssRNA, constant regions annealed to DNA blockers; guide miR-122 5' phosphate) RNA 1: GAGUUCUACAGUCCGACGAUCCCAACAUAUUCUGCACCUGGAAUUCUCGGGUGCCAA RNA 2: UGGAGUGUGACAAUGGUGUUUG DNA 1: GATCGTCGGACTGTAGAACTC DNA 2: TTGGCACCCGAGAATTCCA 0.389 fold enrichment over input
